Tgt: Peroxisome proliferator-activated receptor gamma (Homo sapiens, UniProt P37231)
Sequence (P37231 whole entry): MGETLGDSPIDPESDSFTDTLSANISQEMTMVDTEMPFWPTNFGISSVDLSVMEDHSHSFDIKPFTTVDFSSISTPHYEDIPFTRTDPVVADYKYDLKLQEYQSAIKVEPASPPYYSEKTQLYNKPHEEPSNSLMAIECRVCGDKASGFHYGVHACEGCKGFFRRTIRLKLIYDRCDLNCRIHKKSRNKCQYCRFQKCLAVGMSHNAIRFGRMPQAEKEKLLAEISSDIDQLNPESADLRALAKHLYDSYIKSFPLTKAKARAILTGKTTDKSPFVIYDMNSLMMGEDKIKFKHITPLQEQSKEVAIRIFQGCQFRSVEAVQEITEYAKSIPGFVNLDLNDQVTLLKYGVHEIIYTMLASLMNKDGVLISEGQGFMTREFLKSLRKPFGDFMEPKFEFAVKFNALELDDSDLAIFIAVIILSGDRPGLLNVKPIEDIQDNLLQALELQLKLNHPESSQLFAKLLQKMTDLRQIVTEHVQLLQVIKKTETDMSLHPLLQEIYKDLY
Assay explanation: Antagonist activity at PPARgamma (unknown origin) expressed in human LNCaP cells assessed as suppression of pioglitazone-induced PPAR response element driven firefly luciferase activity measured after 24 hrs by dual luciferase reporter assay
Threshold 2000 nM: IC50 strictly smaller gives Satisfied, otherwise Not satisfied.

Given the entry COc1ccc(NC(=O)CC[C@H](NS(=O)(=O)c2ccc(C)cc2)C(=O)O)cc1 , would its reported IC50 be below 2000 nM? Not satisfied

API: query returns whether the molecule falls strictly under 2000 nM in IC50. Query: O=C(CNC(=O)Nc1ccc(NC(=O)NCC(=O)Nc2ccc(C3=NCCN3)cc2)cc1)Nc1ccc(C2=NCCN2)cc1 Satisfied

IC50 under 2000 nM? Item: O=C(CCCC(=O)N/N=C/c1cccc2ccccc12)N/N=C/c1ccc2ccccc2c1 Not satisfied

For CC(/C=N/Nc1ccc(S(=O)(=O)/N=C/C(C)=C/c2ccccc2)cc1)=C\c1ccccc1 , is the recorded IC50 below the cut-off of 2000 nM? Not satisfied

Quick check: does CCN(CC)c1ccc(CN(CC(=O)c2ccc(Cl)c(Cl)c2)Cc2ccccc2)cc1 have IC50 under 2000 nM? Not satisfied

Does O=S(=O)(NCCSSCCNS(=O)(=O)c1cccc2cccnc12)c1cccc2cccnc12 have IC50 strictly under 2000 nM? Satisfied

Here's an entry: CC(=O)c1cc(C(C)=O)c(CC(=O)C(=O)Nc2cccc(C)c2C)cc1CC(=O)C(=O)Nc1cccc(C)c1C . Is its IC50 below 2000 nM? Not satisfied

Consider the molecule O=C1C=C(Nc2ccccc2C(=O)CC(=O)C(=O)Nc2ccc(Cl)c(Cl)c2)c2ccccc2C1=O . Is its IC50 strictly less than 2000 nM? Not satisfied

Determine if COc1ccc(O)c(/C=N/c2ccccc2NS(=O)(=O)c2ccc(C)cc2)c1 shows IC50 strictly lower than 2000 nM. Not satisfied

Say whether its IC50 is strictly beneath 2000 nM. Entry: O=C(OCc1cccc2ccc3cccc(COC(=O)c4ccccc4)c3c12)c1ccccc1 Not satisfied

Just wondering, is IC50 of COc1cc(OC)c2c(=O)cc(-c3cccnc3)oc2c1 below 2000 nM? Satisfied

Here's an entry: O=C(CCCOc1ccc(Cl)cc1Cl)N[C@@H](Cc1c[nH]c2ccccc12)C(=O)O . Is its IC50 below 2000 nM? Not satisfied

IC50 under 2000 nM? Item: O=C(O)c1ccccc1-c1ccccc1C(=O)Nc1ccc2c(c1)-c1ccccc1C2 Not satisfied

Does the reported IC50 of the following molecule sit strictly below 2000 nM? O=C(Nc1ccccc1C(=O)N/N=C/c1c(O)ccc2ccccc12)c1ccccc1Cl Satisfied

API: query returns whether the molecule falls strictly under 2000 nM in IC50. Query: COc1c(OC)c(O)c2c(=O)cc(-c3ccc(O)cc3)oc2c1OC Not satisfied
